- test.target: T1, Human Fibroblast Activation Protein (FAP) on HT1080 cells (human, UniProt Q12884 1-760)
- T1 construct: HT1080 cells transduced with human FAP cDNA; also called HT1080-FAP; FAP+ HT1080
- measurement.protocol: flow cytometry, scFv-Fc on HT1080-FAP cells
measured.attribute: MFI (MFI)

[[record]]
binder = "FAP.63.G3 (Fc fusion, Tested as scFv-Fc; orientation, linker and Fc not specified; also called FAP.63.C3; FAP 63.C3) VH: DVQLVESGGGVVRPGESLTLSCAASGFTFSNYDMGWVRQAPGEGLEWVSGIRGRGGSTYYADSVKGRFTISRDSSKNTLYLQMNSLRAEDTAVYYCAKENNRHSFFEYWGLGTLVTVSS VL: EIVLTQSPGTLSLSPGERATLSCRASQSVGHYLAWYQQKPGQAPRLLIYDASNRAIDIPDRFSGSGSGTEFTLTISRLEPEDFAVYYCQQYYNNWPPLTFGGGTKVEIK"
measured_attribute = "MFI"
measured_number = 72800

[[record]]
binder = "FAP.84.A9 (Fc fusion, Tested as scFv-Fc; orientation, linker and Fc of this construct not specified) VH: DVQLVESGGGVVRPGGSLRLSCAASGFPFSSYPMTWVRQAPGEGLEWVSSIRPIGDRIHYADSVKGRFTISRDSSNNTLYLQMNSLRAEDTAVYYCATGWNFFDYWGLGTLVTVSS VL: EIVLTQSPGTLSLSPGERATLTCRASQTVATYLAWYQQKPGQAPRLLIYAAISRATGIPDRFIGSGSGTDFTLTINRLEPEDFAVYYCQQYKDWPPLTFGGGTKVEIK"
measured_attribute = "MFI"
measured_number = 25400

[[record]]
binder = "FAP.84.B7 (Fc fusion, Tested as scFv-Fc; orientation, linker and Fc of this construct not specified) VH: DVQLVESGGGVVRPGESLRLSCAASGFIFRNYAMTWVRQAPGEGLEWVSTIRSSGSGRTDTYYADSVKGRFTISRDSSNNTLYLQMNSLRAEDTAVYYCAKSGTFWDTFFDYWGLGTLVTVSS VL: EIVLTQNPGTLNLSPGERATLTCRASQSAGRNLAWYQQKPGQTPRLLIYDVNTRATGIPDRFSGSGSGTEFNLTISSLQNEDFAVYYCQQYNNWPPLTFGGGTKVEIK"
measured_attribute = "MFI"
measured_number = 24000

[[record]]
binder = "FAP.63.D7 (Fc fusion, Tested as scFv-Fc; orientation, linker and Fc of this construct not specified) VH: DVQLVESGGGVVRPGESLRLSCAASGFTFSSYAMSWVRQTPGEGLEWVSFISSGGAYTHYTDSVKGRFTISRDNSKNTLYLQMNSLRAEDTAVYYCAKEKEIWNAFFDYWGLGTLVTVSS VL: EIVLTQSPATLNLSPGDRATLTCRASQTVGSKLAWYQQTSGQAPRLLIYDASSRATGIPDRFSGSGSGTEFTLTISSLEPEDFAVYVCQQYYDWPPLTFGGGTKVEIK"
measured_attribute = "MFI"
measured_number = 49100

